conditions: Crystal; visual observation
Record form. Attribute: Normal melting temperature. Fill in for each entry.
Just the number please, in °C, no unit attached.

Challenge: Quote Normal melting temperature reported for CCCC(=O)[O-].C[N+](C)(C)CCO [choline butanoate] please.
Response given: 42.83

Challenge: Quote Normal melting temperature reported for CCC(=O)[O-].C[N+](C)(C)CCO [cholinium propanoate] please.
Response given: 9.42

Challenge: Quote Normal melting temperature reported for CCCC[P+](CCCC)(CCCC)CCCC.[Cl-] [tetrabutylphosphonium chloride] please.
Response given: 66.31

Challenge: Quote Normal melting temperature reported for CCCC[N+](CCCC)(CCCC)CCCC.[Cl-] [tetrabutylammonium chloride] please.
Response given: 69.67

Challenge: Quote Normal melting temperature reported for CCCC[N+]1(C)CCCC1.[Cl-] [1-butyl-1-methylpyrrolidinium chloride] please.
Response given: 199.83

Challenge: Quote Normal melting temperature reported for CCn1cc[n+](C)c1.[Cl-] [1-ethyl-3-methylimidazolium chloride] please.
Response given: 77.27

Entry source: the NIST ThermoML archive (doi:10.1016/j.fluid.2017.03.015)
